B1: TPR t1 (parent)
chain: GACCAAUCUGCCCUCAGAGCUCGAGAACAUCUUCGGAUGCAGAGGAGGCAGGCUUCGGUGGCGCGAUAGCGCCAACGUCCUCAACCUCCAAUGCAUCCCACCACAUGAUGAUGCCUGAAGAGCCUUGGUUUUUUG

- Variants of: B1
- Run Description: polymerase ribozyme fitness, log enrichment relative to wild type (log ratio); higher = more active; in vitro selection for triplet polymerase activity
Readout Label: polymerase ribozyme fitness (log ratio)
# print the numeric value only

Form field polymerase ribozyme fitness (log ratio), entry "GACCAAUCUGCCGUCAGAGCUCGAGAACAUCUUCGGAUGGAGAGGAGGCAGGCUUCGGUGGCGCGAUAGCGCCAACGUCCUCAACCUCCAAUGCAUCCCACCACAUGAUGAUGCCUGAAGAGGCUUGGUUUUUUG" : -0.377

Form field polymerase ribozyme fitness (log ratio), entry "GACCAAUCUGCCCUCAGAGCUCGAGAACAUCUUCGUAUGUAGAGGAGGCAUGCUUCGGUGGCGCGAUGGCGUCAACGUCCUCAACCUCCAAUGCAUCCCACCACAUGAUGUUGCCUGACAAGCCUUGGUUUUUUG" : -8.09

Form field polymerase ribozyme fitness (log ratio), entry "GACCAAUCUGCCCUCAGAGCUCGAGAACAUCUUCGGAUGCAGAGGAGGCAGGCUUCGGUGGCGCGAUAGCGCCCACGUCCUCAACCUCCAAUGCAUCCCACCACAUGAUGAUUCUUAAAGAGACUUGGUUUUUUG" : -6.47
